- SYSTEM_UNDER_TEST: T1, DVL3, Q92997
- T1 sequence (Q92997 244-331, limits assumed, looked up): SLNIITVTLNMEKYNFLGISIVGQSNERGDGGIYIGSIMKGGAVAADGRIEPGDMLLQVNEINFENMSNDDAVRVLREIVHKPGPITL
- TEST_METHOD_NOTES: holdup assay
- Design: key: below the threshold = too weak to quantify, mostly under pKd 3.1 to 4
- DETAILS: plain residues with an end cap or a label only (N-terminal biotin on a linker: ttds)
MEASURED_ENDPOINT: pKd

Below: 6 binders and their reported pKd.
// KKYVDAETSL [SLC4A7, Q9Y6M7] : pKd value = below the threshold

# binder SSLQSLETSV [ATP2B4, P23634] ; its pKd = 3.6

For reference, reported pKd for EVVHTPETSV [SLC16A3, O15427] stands at below the threshold

Reported pKd ( SKPTRRETEV [HPV35-E6, P27228] ) = below the threshold

pKd reported for this binder QRQARSETLV [HPV59-E6, Q81964] : below the threshold

Per the record, RHTTSTETAV [HPV30-E6, P36809] has pKd of below the threshold

New cases:
pKd reported for this binder PVRVCEETSL [OTULIN, Q96BN8] : below the threshold

Entry NDPAWDETNL [ARHGEF7, Q14155;Q14155-1] — recorded pKd = below the threshold
